system: T1, ΔhASIC1a-nanodiscs (Homo sapiens, UniProt P78348)
T1 construct: A truncated ASIC1a (amino acids 13-464; ΔhASIC1a) was overexpressed and purified; made in house; host or cells: HEK293F (BacMam baculovirus)
T1 sequence (P78348 13-464, stated change not applied): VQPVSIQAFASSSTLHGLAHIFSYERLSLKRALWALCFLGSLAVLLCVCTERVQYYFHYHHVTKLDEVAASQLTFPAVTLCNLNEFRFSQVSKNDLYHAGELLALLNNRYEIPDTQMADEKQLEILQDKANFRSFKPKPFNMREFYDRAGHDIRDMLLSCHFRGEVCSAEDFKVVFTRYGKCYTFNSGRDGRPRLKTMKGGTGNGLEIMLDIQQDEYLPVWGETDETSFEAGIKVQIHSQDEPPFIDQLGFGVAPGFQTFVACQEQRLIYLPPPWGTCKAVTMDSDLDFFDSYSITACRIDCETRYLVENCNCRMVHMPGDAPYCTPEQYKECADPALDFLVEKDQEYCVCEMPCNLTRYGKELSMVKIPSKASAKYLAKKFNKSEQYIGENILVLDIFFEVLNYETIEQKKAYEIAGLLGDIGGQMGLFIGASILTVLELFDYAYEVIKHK
T1 sequence (P02647 68-267 partner limits assumed): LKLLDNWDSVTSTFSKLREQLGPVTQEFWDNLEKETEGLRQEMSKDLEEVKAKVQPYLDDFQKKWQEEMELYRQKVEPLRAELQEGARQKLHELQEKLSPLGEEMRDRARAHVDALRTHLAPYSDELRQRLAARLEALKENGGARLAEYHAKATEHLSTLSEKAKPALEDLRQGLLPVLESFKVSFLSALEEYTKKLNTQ
run description: Binding affinities of scFv antibodies to ΔhASIC1a-nanodiscs, Octet system
conditions: scFv format; Octet system
pKd: −log10 of the molar value.
The label depends only on pKd: Yes if it is at least 7, No if it is smaller.

| molecule | category |
| --- | --- |
| ASC03: anti-ASIC1a scFv antibody, VH SEQ ID NO: 22 and VL SEQ ID NO: 27 (antibody, V domains shown, scFv linker; Amino acid sequence of ASC03 VH; Amino acid sequence of ASC03 VL) VH: QVQLVESGAEVKKPGSSVKVSCKASGGNFRKYSISWVRQAPGQGLEWMGWISAYNGNTNYAQKLQGRVTMTTDTSTSTAYMELRSLRSDDTAVYYCARDFDPYYDAFDIWGQGTTVTVSS VL: QSALTQPASVSGSPGQSITISCTGTSSDVGAYNYVSWYQQHPGKAPKLMIYDVSNRLSGVSNRFSGSKSGNRASLTISGLQAEDEADYYCSSYRSGNSLAFGGGTKLTVLG | No |
| ASC06: anti-ASIC1a scFv antibody, VH SEQ ID NO: 52 and VL SEQ ID NO: 57 (antibody, V domains shown, scFv linker; Amino acid sequence of ASC06 VH; Amino acid sequence of ASC06 VL) VH: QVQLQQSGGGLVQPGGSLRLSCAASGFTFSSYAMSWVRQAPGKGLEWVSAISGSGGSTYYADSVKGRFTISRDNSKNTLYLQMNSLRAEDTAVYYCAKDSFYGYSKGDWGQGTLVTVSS VL: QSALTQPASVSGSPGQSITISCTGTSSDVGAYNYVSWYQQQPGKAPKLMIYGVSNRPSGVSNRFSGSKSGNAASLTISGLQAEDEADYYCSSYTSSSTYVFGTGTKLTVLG | Yes |
| ASC01: anti-ASIC1a scFv antibody, VH SEQ ID NO: 2 and VL SEQ ID NO: 7 (antibody, V domains shown, scFv linker; Amino acid sequence of ASC01 VH; Amino acid sequence of ASC01 VL) VH: QVQLVETGPRLVKPSQTLSLTCTVSGGSINSGGYYWGWIRQHSGKGLEWIGYIYPRGSSYYNPSLRSRVTISADTSRNNFSLKLTSVTAADTAVYYCARVGYTGAFDIWGQGTLVTVSS VL: QAVLTQPSSVSAAPGQKVTISCSGGNSNIGNNYVSWYQQLPGTAPKLLIYDNNKRPSGIPDRFSGSKSGTAATLGITGLQTGDEADYYCGTWDSSLSAGVFGEGTQLTVLG | Yes |
| ASC04: anti-ASIC1a scFv antibody, VH SEQ ID NO: 32 and VL SEQ ID NO: 37 (antibody, V domains shown, scFv linker; Amino acid sequence of ASC04 VH; Amino acid sequence of ASC04 VL) VH: QVQLVQSGAEVKKPGSSVKVSCKASGGTFSTYAINWVRQAPGQGLEWMGWMNPNSGNTGYAQKFQGRVTMTRNTSISTAYMELSSLRSEDTAVYYCARYSYGMDVWGQGTTVTVSS VL: QAVLTQPSSLSASPGASVSLTCTLRSGINVGAYRIYWYQQKPGSPPQFLLRYKSDSDKQQGSGVPSRFSGSRDASANAGILLISGLRSEDEADYYCAIWHSSAWVFGGGTKLTVLG | Yes |

input: State whether the measured pKd reaches 7, counting equality as reaching it, for ASC02: anti-ASIC1a scFv antibody, VH SEQ ID NO: 12 and VL SEQ ID NO: 17 (antibody, V domains shown, scFv linker; Amino acid sequence of ASC02 VH; Amino acid sequence of ASC02 VL) VH: QVQLVQSGAEVKKPGASMKVSCTTSGYTVTGYYIHWLRQAPGQGFEWMGWINPNLGVTNYAQKFQGRVSMTRDPSIKTAYLELSGLRSDDTAMYYCARASTGGIFYDYWGQGTLVTVSS VL: NFMLTQPHSMSESPGKTVTISCTRSSGNIASNYVQWYQQRPGSSPTTVIYDDNQRPSGVPDRFSGSIDSISNSASLTISGLKTEDEADYYCQSYDSSSVIFGGGTKLTVLG
output: No

Just for reference, patent US12692310B2 is where these values come from.
